The following sequences are shown together with reported apparent KD of MS2 coat protein values.
# Test system: MS2 coat protein
# Test name: apparent KD of MS2 coat protein; designed switch direction (-1 OFF switch, 1 ON switch): -1; higher = weaker reporter binding
# Condition details: input ligand: FMN 200 uM
Quick note: give the figure in nM, leave out the unit.

Field: example entries. Status: answers known.
ACAAGCUUAGGUUUUCAUAACAUGAGGAUCACCCAUGUUCGUCUUAUAAAAAUAAAAAUAAAAAACAAAAAAUAAAA [Sensor V2: 66] (Eterna round: R96, puzzle: Sensor v2, turn-off variant) ... 39.1
CAGCUGAAAGUGAGGAUAUCUAGAGCUGCGGCUCUAGAGAAGGCACAUGAGGAUCACCCAUGUCUCAACAGCUG [BmEx4/1-A3] (Eterna round: R97, puzzle: Brourd's mod of Exclusion 4) ... 51.9
CCAAGCUACUUCAUUAUCCACAUGAGGAUCACCCAUGUCUUGGCAAUUAUGACCUGCCCGUCAGGAGCUCGUCUUAU [Sensor-V1 #39] (Eterna round: R97, puzzle: Sensor, turn-off variant 1) ... 113
UCGGCGCUAGGAUAUGCGUCGAAAGACAUGAGGAUCACCCAUGUGGUGCUCCUUAUUAAAGCAGAAGGAGCCCGUA [EX5 A.17] (Eterna round: R97, puzzle: Exclusion 5) ... 300

Here's the next entry for you.
Query block: Lab note: MS2 coat protein assay, enter apparent KD of MS2 coat protein for UACAUGAGGAUCACCCAUGUUUUGUCGUGUAUGGUAUUUAUCUAGGAUAUCAUUAUAUUUAUUUAUGAGAAGGAGAAUAUUAAU [JMF's solution 97] (Eterna round: R96, puzzle: Exclusion NG 3) here
Result block: 29.9
